- Tested on: Plasmodium berghei
- MEASUREMENT_PROTOCOL: Luciferase/luciferin-expressing antifolate-resistant parasites were used to infect a culture of HepG2 cells that were pre-incubated with compounds. Infected hepatocytes emit light due to the luciferase reaction. Assay results are presented as the percent inhibition of light emission compared to control. […]
- Assay type: functional
- PARTICULARS: sporozoite, PBLUC_HILL_SLOPE 8.76, 2.86, PBLUC_R_SQUARED 0.104, 0.555, read-out: LUCIFERASE INFECTION ASSAY - IC50
MEASURED_PARAMETER: IC50 (µM)
Give the value, in units of µM, as a plain number.

GET /values?readout=IC50&item= O=C(N/N=C/c1ccc(N2CCCCC2)s1)c1ccccc1O
3.37

* * *

- Test system: Plasmodium berghei
- MEASUREMENT_PROTOCOL: Luciferase/luciferin-expressing antifolate-resistant parasites were used to infect a culture of HepG2 cells that were pre-incubated with compounds. Infected hepatocytes emit light due to the luciferase reaction. Assay results are presented as the percent inhibition of light emission compared to control. […]
- Assay type: functional
- PARTICULARS: sporozoite, HEPG2TOX_HILL_SLOPE 4.26, HEPG2TOX_R_SQUARED 0.801, PBLUC_HILL_SLOPE 11.5, PBLUC_R_SQUARED 0.365, read-out: LUCIFERASE INFECTION ASSAY - IC50
MEASURED_PARAMETER: IC50 (nM)
Report as a plain number; the unit nM is understood.

IC50 for O=C(Nc1ccccc1)N1CCc2nc(NCc3cccc(Oc4ccccc4)c3)ncc2C1 ?
2600

* * *

- System: Plasmodium berghei
- MEASUREMENT_PROTOCOL: Luciferase/luciferin-expressing antifolate-resistant parasites were used to infect a culture of HepG2 cells that were pre-incubated with compounds. Infected hepatocytes emit light due to the luciferase reaction. Assay results are presented as the percent inhibition of light emission compared to control. […]
- Assay type: functional
- PARTICULARS: sporozoite, PBLUC_HILL_SLOPE 12.4, PBLUC_R_SQUARED 0.574, read-out: LUCIFERASE INFECTION ASSAY - IC50
MEASURED_PARAMETER: pIC50
Kindly note that pIC50 refers to -log10 of the concentration in mol/L and answer with the value alone.

API: value(readout= pIC50, system= Plasmodium berghei, query= COc1ccc(C(CNC(=O)c2cc3c(C)nn(-c4ccc(Cl)cc4)c3s2)N(C)C)cc1 (stereo unspecified) )
5.46

* * *

- Tested on: Plasmodium berghei
- MEASUREMENT_PROTOCOL: Luciferase/luciferin-expressing antifolate-resistant parasites were used to infect a culture of HepG2 cells that were pre-incubated with compounds. Infected hepatocytes emit light due to the luciferase reaction. Assay results are presented as the percent inhibition of light emission compared to control. […]
- Type: functional
- PARTICULARS: sporozoite, FFLUC_HILL_SLOPE 0.849, FFLUC_R_SQUARED 0.0339, PBLUC_HILL_SLOPE 12.7, PBLUC_R_SQUARED 0.127, read-out: LUCIFERASE INFECTION ASSAY - IC50
MEASURED_PARAMETER: IC50 (µM)
Numbers only here, please. The scale is µM.

Which IC50 value belongs to Cc1cc(C(=O)CSc2nnc3n2CCCCC3)c(C)n1-c1ccccc1 ?
9.31

* * *

- Test system: Plasmodium berghei
- MEASUREMENT_PROTOCOL: Luciferase/luciferin-expressing antifolate-resistant parasites were used to infect a culture of HepG2 cells that were pre-incubated with compounds. Infected hepatocytes emit light due to the luciferase reaction. Assay results are presented as the percent inhibition of light emission compared to control. […]
- Assay type: functional
- PARTICULARS: sporozoite, PBLUC_HILL_SLOPE 4.51, PBLUC_R_SQUARED 0.135, read-out: LUCIFERASE INFECTION ASSAY - IC50
MEASURED_PARAMETER: pIC50
Reminder that pIC50 is minus the log10 of a molar concentration.

Data request, read-out pIC50, for COc1ccc(Nc2nccc3[nH]c(-c4cccc(F)c4)cc23)cc1O
5.03

* * *

- Tested on: Plasmodium berghei
- MEASUREMENT_PROTOCOL: Luciferase/luciferin-expressing antifolate-resistant parasites were used to infect a culture of HepG2 cells that were pre-incubated with compounds. Infected hepatocytes emit light due to the luciferase reaction. Assay results are presented as the percent inhibition of light emission compared to control. […]
- Assay type: functional
- PARTICULARS: sporozoite, HEPG2TOX_HILL_SLOPE 2.61, HEPG2TOX_R_SQUARED 0.962, PBLUC_HILL_SLOPE 2.74, PBLUC_R_SQUARED 0.471, read-out: LUCIFERASE INFECTION ASSAY - IC50
MEASURED_PARAMETER: IC50 (nM)
State the answer as a number, implicitly in nM.

What measured IC50 is associated with CCC(C)NC(=O)c1c(NC(=O)c2ccc(F)c(Cl)c2)nc2ccc(C)cn12 (stereo unspecified) on Plasmodium berghei?
2670

* * *

- Test system: Plasmodium berghei
- MEASUREMENT_PROTOCOL: Luciferase/luciferin-expressing antifolate-resistant parasites were used to infect a culture of HepG2 cells that were pre-incubated with compounds. Infected hepatocytes emit light due to the luciferase reaction. Assay results are presented as the percent inhibition of light emission compared to control. […]
- Type: functional
- PARTICULARS: sporozoite, HEPG2TOX_HILL_SLOPE 10.5, HEPG2TOX_R_SQUARED 0.302, PBLUC_HILL_SLOPE 15.7, PBLUC_R_SQUARED 0.498, read-out: LUCIFERASE INFECTION ASSAY - IC50
MEASURED_PARAMETER: pIC50
Just the number, please; pIC50 means minus log10 of the concentration in mol/L.

Quick check: pIC50 of O=C(Nc1ccc(C(F)(F)F)cc1[N+](=O)[O-])c1ccccc1O ?
5.49

* * *

- System: Plasmodium berghei
- MEASUREMENT_PROTOCOL: Luciferase/luciferin-expressing antifolate-resistant parasites were used to infect a culture of HepG2 cells that were pre-incubated with compounds. Infected hepatocytes emit light due to the luciferase reaction. Assay results are presented as the percent inhibition of light emission compared to control. […]
- Format: functional
- PARTICULARS: sporozoite, FFLUC_HILL_SLOPE 12.3, FFLUC_R_SQUARED 0.824, HEPG2TOX_HILL_SLOPE 1.2, HEPG2TOX_R_SQUARED 0.387, PBLUC_HILL_SLOPE 2.74, PBLUC_R_SQUARED 0.879, read-out: LUCIFERASE INFECTION ASSAY - IC50
MEASURED_PARAMETER: pIC50
Scale explanation: pIC50 corresponds to minus log10 of a concentration expressed in moles per litre.

Form field: pIC50 recorded for Oc1c(C(c2ccc(C(F)(F)F)cc2)N2CCCC2)cc(Cl)c2cccnc12 (stereo unspecified) with Plasmodium berghei (enter value)
6.00

* * *

- System: Plasmodium berghei
- MEASUREMENT_PROTOCOL: Luciferase/luciferin-expressing antifolate-resistant parasites were used to infect a culture of HepG2 cells that were pre-incubated with compounds. Infected hepatocytes emit light due to the luciferase reaction. Assay results are presented as the percent inhibition of light emission compared to control. […]
- Type: functional
- PARTICULARS: sporozoite, HEPG2TOX_HILL_SLOPE 3.04, HEPG2TOX_R_SQUARED 0.92, PBLUC_HILL_SLOPE 1.95, PBLUC_R_SQUARED 0.451, read-out: LUCIFERASE INFECTION ASSAY - IC50
MEASURED_PARAMETER: IC50 (nM)
Just the number in nM, nothing appended.

Entry C[C@]12CC[C@H](O)C[C@H]1CC[C@@H]1C2CC[C@]2(C)[C@@H](C3=CC(=O)OC3)[C@@H](O)C[C@]12O (stereo partly specified) has what IC50?
2700

* * *

- Tested on: Plasmodium berghei
- MEASUREMENT_PROTOCOL: Luciferase/luciferin-expressing antifolate-resistant parasites were used to infect a culture of HepG2 cells that were pre-incubated with compounds. Infected hepatocytes emit light due to the luciferase reaction. Assay results are presented as the percent inhibition of light emission compared to control. […]
- Format: functional
- PARTICULARS: sporozoite, PBLUC_HILL_SLOPE 3.19, PBLUC_R_SQUARED 0.12, read-out: LUCIFERASE INFECTION ASSAY - IC50
MEASURED_PARAMETER: pIC50
In simple prose, pIC50 is minus the logarithm base ten of a concentration in moles per litre.

# query: pIC50 of entry N#Cc1ccc(C(=O)Nc2cccc(Oc3ccccc3)c2)cc1
5.20

* * *

- Tested on: Plasmodium berghei
- MEASUREMENT_PROTOCOL: Luciferase/luciferin-expressing antifolate-resistant parasites were used to infect a culture of HepG2 cells that were pre-incubated with compounds. Infected hepatocytes emit light due to the luciferase reaction. Assay results are presented as the percent inhibition of light emission compared to control. […]
- Format: functional
- PARTICULARS: sporozoite, HEPG2TOX_HILL_SLOPE 2.43, HEPG2TOX_R_SQUARED 0.95, PBLUC_HILL_SLOPE 15.4, PBLUC_R_SQUARED 0.713, read-out: LUCIFERASE INFECTION ASSAY - IC50
MEASURED_PARAMETER: pIC50
Remember, pIC50 is on a log scale: it is -log10 of the molar concentration.

What value of pIC50 has been recorded for this entry: CC(=O)c1cccc(-c2ccc3ncc(-c4cccc(C(F)(F)F)c4)n3n2)c1
6.45
